Target: Estrogen receptor beta (Homo sapiens)
Experiment: displacement of fluorescent estrogen from ERbeta – cell-based, Cos7 ERbeta-GFP, flow cytometry, primary screen (AID 1210);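 also: 0% = DMSO vehicle wells and 100% = complete loss of labeled estradiol signal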
Settings: fluorescent estrogen binding, at 10 µM, hits give high values
measured.parameter: inhibition (%)
Numeric answer only, unit % assumed.

I am curious: what inhibition value has been reported for Cc1ccc(C2=Nc3ccccc3N=C(c3ccco3)C2)c(O)c1 ?
2

Further cases:
I am curious: what inhibition value has been reported for COC(=O)c1ccc(OCc2c(C)noc2C)cc1 ?
0

I am curious: what inhibition value has been reported for COc1cccc(C2NCCc3cc(OC)c(OC)cc32)c1 (stereo not drawn) ?
15

I am curious: what inhibition value has been reported for Cc1cccc2cc(C(c3nnnn3C(C)(C)C)N(Cc3ccco3)CC3CCCO3)c(=O)[nH]c12 (stereo not drawn) ?
18

I am curious: what inhibition value has been reported for O=C(O)c1ccc2c(c1)C1C=CCC1C(c1cc3c(cc1Br)OCO3)N2 (stereo not drawn) ?
38

I am curious: what inhibition value has been reported for COc1ccc(C2Nc3ccccc3C(=O)N2Cc2ccccc2)cc1Cn1nnc2ccccc21 (stereo not drawn) ?
38

I am curious: what inhibition value has been reported for N#Cc1ccc(-c2cccnc2)nc1SCC(=O)Nc1sc2c(c1C#N)CCC2 ?
0

I am curious: what inhibition value has been reported for C[C@]12CC[C@@H]3c4ccc(O[C@@H]5O[C@H](C(=O)O)[C@@H](O)[C@H](O)[C@H]5O)cc4CC[C@H]3[C@@H]1C[C@@H](O)[C@@H]2O ?
52

I am curious: what inhibition value has been reported for Cc1ccc(-c2nnc(-c3ccc(NC(=O)c4ccco4)cc3)o2)cc1 ?
54

I am curious: what inhibition value has been reported for Cc1cc(N)ccc1N=Nc1c(C)n(C)n(-c2ccccc2)c1=O ?
15

I am curious: what inhibition value has been reported for Cc1cc(C2(c3ccc(O)c(C)c3)OC(=O)c3ccccc32)ccc1O ?
73
